# target.under.test: T1, human CD22-ECD-His protein (human, UniProt P20273 20-687)
# T1 construct: Made in house in HEK293E; also called hCD22-ECD-His; recombinant human CD22-ECD His protein; not shown: His tag
# T1 sequence: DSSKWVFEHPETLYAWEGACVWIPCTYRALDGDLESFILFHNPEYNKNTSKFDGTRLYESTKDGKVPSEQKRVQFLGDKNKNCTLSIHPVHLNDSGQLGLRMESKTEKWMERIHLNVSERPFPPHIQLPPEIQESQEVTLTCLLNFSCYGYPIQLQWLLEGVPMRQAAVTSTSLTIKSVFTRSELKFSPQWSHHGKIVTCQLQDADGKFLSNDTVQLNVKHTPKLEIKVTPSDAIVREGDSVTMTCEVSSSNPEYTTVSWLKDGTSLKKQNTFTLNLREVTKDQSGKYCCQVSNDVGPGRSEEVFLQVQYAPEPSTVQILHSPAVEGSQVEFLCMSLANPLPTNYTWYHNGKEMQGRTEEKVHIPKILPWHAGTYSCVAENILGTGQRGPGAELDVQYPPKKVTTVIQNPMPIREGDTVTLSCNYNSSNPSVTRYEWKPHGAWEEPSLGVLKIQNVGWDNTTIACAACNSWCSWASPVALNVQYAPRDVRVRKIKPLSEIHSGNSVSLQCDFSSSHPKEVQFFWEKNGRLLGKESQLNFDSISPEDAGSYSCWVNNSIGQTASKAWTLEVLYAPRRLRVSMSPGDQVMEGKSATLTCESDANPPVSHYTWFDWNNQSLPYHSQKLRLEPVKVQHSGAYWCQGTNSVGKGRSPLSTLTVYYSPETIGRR
# assay.overview: ELISA, Ab 0.10 nM
So I've got a bunch of binders here, and I need their OD450 values.
One number for each entry, in OD450.

# count of solved cases: 4
F2.151.13 (antibody, human IgG1, lambda, V domains shown, Human-murine chimeric IgG1, lambda) VH: QVHLQQPGTELMKPGASVKLSCKATGYTFRDYWLEWVKQRPGHGLEWIGEILPGSGNAYYNEKFKGKATFTADTSSNTAYMQLSSLTTEDSAIYYCARVYSNWYFDAWGKGTTVTVSS VL: QAVVTQESALTTSPGETVTLTCRSSTGAVTTSNYANWVQEKPDHLFTGLIGGTNNQAPGVPARFSGSLIGDKAALTISGAQTEDEAIYFCALWFSNHWVFGGGTKLTVLG ... 2.55
F1.7.6 (antibody, human IgG1, kappa, V domains shown, Human-murine chimeric IgG1, kappa) VH: EIQLQQSGPELVKPGTSVKVSCKASGYDFTRYNMYWVKQSHGKSLEWIGYIDPYNGDTRYNQKFKGKATLTVDKSSSTAYMHLNSLTSEDSAVYYCEAIYYDMEGYALDYWGQGTSVTVSS VL: DIVMSQSPSSLAVSVGEKVTMSCKSSQSLLYSNNQKNYLAWYQQKPGQSPKKLIYWASTRESGVPDRLTGSGSGTDFTLTISSVTAEDLAVYYCQQFYSYPWTFGGGTKLEIKR ... 2.51
F1.161.7 (antibody, human IgG1, kappa, V domains shown, Human-murine chimeric IgG1, kappa) VH: QVQLQQPGAELVKPGASVKMSCKASGYTFTSYWISWVKQRPGQGLEWIGDIYPGTGSSNYNEKFKSKATLTVDTSSSTAYMQLSSLTSEDSAVYYCARLKFEGIGYWGQGTTLTVSS VL: QIVLTQSPAIMSASLGEEITLTCSASSSVSYMHWFQQKSGTSPKLLIYSISNLASGVPSRFSGSGSGTFYSLTISSVEAEDAADYYCHQWSSYPWTFGGGTKLEIKR ... 2.61
F1.280.1 (antibody, human IgG1, kappa, V domains shown, Human-murine chimeric IgG1, kappa) VH: QIQLVQSGPELKKPGETVKISCKASGYTFTTYGMSWVKQTPGKGLTWMGWINTDSGVPTYADDFKRRFAFSLEASATTAYLQINNLKNEDTATYFCARGGPDYWGQGTTLTVSS VL: DILLTQSPATLSVTPGETVSLSCRASQSIYKNLHWYHQKSHRSPRLLIKYASDSISGIPSRFTGSGSGTNFTLSINSVKPEDEGIYYCLQGYIVPLTFGAGTKLELKR ... 2.38

In the following, a different binder is considered.
Please fill in: OD450 reported for F1.257.3 (antibody, human IgG1, kappa, V domains shown, Human-murine chimeric IgG1, kappa) VH: QVQLQQSGPELARPGASVKLSCKASGYTFTSYGISWVKQRTGQDLEWIGEIYPKLGTTYYNEKFKDKATLTTDRSSSTAYMALRSLTSEDSAVYFCACPHYYATRGGDYWGQGTTLTVSS VL: EIVLTQSPATLSVTPGDSVTFSCRASQSISNHLHWYQQKSHESPRLLIRYASQSISGIPSRFSGSGSGTDFTLSLSSVETEDFGVYFCQQSHSWPYTFGGGTKLEIAR = 2.49
